Where do the numbers come from? From patent US5866567A.

Structures can show the parent of a compound that is named as a salt.
Recorded below: IC50, system Human GnRH receptor (Homo sapiens).
Number in nM, nothing else.

Input line: Fill in: IC50 of O=C(COc1ccccc1)Nc1ccc(CN2C(=O)[C@H]3CCC[C@H]3N(C(=O)CN3C(=O)c4ccccc4C3=O)c3ccccc32)cc1 (relative stereo) [Example 18] is ___
Output line: 600

Input line: State the recorded IC50 for this entry: O=C(Nc1ccc(CN2C(=O)[C@H]3CCC[C@H]3N(C(=O)CN3C(=O)c4ccccc4C3=O)c3ccccc32)cc1)c1ccc(F)cc1 (relative stereo) [Example 10]
Output line: 200

Input line: Entry O=C(Nc1ccc(CN2C(=O)[C@H]3CCC[C@H]3N(C(=O)CN3C(=O)c4ccccc4C3=O)c3ccccc32)cc1)c1ccc2ccccc2c1 (relative stereo) [Example 21] : reported IC50 = ?
Output line: 200

Input line: Which IC50 is reported for this compound? O=C(Nc1ccc(CN2C(=O)[C@H]3CCC[C@H]3N(C(=O)CN3C(=O)c4ccccc4C3=O)c3ccccc32)cc1)OCc1ccccc1 (relative stereo) [Example 1]
Output line: 100

Input line: Given the compound O=C(NCc1ccncc1)Nc1ccc(CN2C(=O)[C@H]3CCC[C@H]3N(C(=O)CN3C(=O)c4ccccc4C3=O)c3ccccc32)cc1 (relative stereo) [Example 34, hydrochloride] , what is its reported IC50?
Output line: 80

Input line: Which value of IC50 has been reported for O=C(Nc1ccc(CN2C(=O)[C@H]3CCC[C@H]3N(C(=O)CN3C(=O)c4ccccc4C3=O)c3ccccc32)cc1)c1ccc(Cl)cc1 (relative stereo) [Example 11] in the records?
Output line: 200
